# assay.comment: in vitro
# protocol.conditions: human, hela cells, % viability
With a cut-off of 90%, any viability at 28.5 h, 10 µM strictly below it is called Fulfilled; any viability at 28.5 h, 10 µM meeting it or above is called Not fulfilled.

Query :: Decide: viability at 28.5 h, 10 µM of COc1ccccc1-c1cnc(N)c(N[C@H](C)c2ccccc2)n1 strictly below 90%?
Result :: Not fulfilled

Query :: Decide: viability at 28.5 h, 10 µM of O=C(CCN1C(=O)/C(=C\C=C\c2ccccc2)SC1=S)Nc1cccc(C(=O)O)c1 strictly below 90%?
Result :: Not fulfilled

Query :: Decide: viability at 28.5 h, 10 µM of CC1=NNC(=S)NC(C)(C)C1 strictly below 90%?
Result :: Not fulfilled

Query :: Decide: viability at 28.5 h, 10 µM of CC(C)=NOc1ncccc1C#N strictly below 90%?
Result :: Not fulfilled

Query :: Decide: viability at 28.5 h, 10 µM of CCCCCC1CC(CC(=O)NC(=S)Nc2ccccc2Cl)C(=O)O1 (stereo not shown) strictly below 90%?
Result :: Fulfilled

Query :: Decide: viability at 28.5 h, 10 µM of Cc1ccc(C(=O)Nc2ccc3[nH]ccc3c2)cc1Cl strictly below 90%?
Result :: Fulfilled

Query :: Decide: viability at 28.5 h, 10 µM of CN1CCN(C)C(COc2cccc(C(F)(F)F)n2)C1 (stereo not shown) strictly below 90%?
Result :: Not fulfilled

Query :: Decide: viability at 28.5 h, 10 µM of COc1ccccc1N1CCN(C2CCN(S(=O)(=O)c3ccc(NC(C)=O)cc3)CC2)CC1 strictly below 90%?
Result :: Not fulfilled

Query :: Decide: viability at 28.5 h, 10 µM of COc1ccc([C@]23CN(C)C[C@H]2CCN(C(=O)c2ccc4c(c2)OC(F)(F)O4)C3)cc1OC [CBK075110T] strictly below 90%?
Result :: Not fulfilled

###

# assay.comment: in vitro
# protocol.conditions: human, hela cells, % viability
With a cut-off of 90%, any viability at 28.5 h, 10 µM strictly below it is called label 1; any viability at 28.5 h, 10 µM meeting it or above is called label 0.

Query :: Decide: viability at 28.5 h, 10 µM of C/C(=N\NC(=O)CC1(C)OCCO1)c1oc(C)cc1C strictly below 90%?
Result :: label 0

Query :: Decide: viability at 28.5 h, 10 µM of CCN(CC)C(=O)C1CCN(S(=O)(=O)c2ccc(C)cc2)CC1 strictly below 90%?
Result :: label 0

Query :: Decide: viability at 28.5 h, 10 µM of Cc1noc(C)c1C(=O)Nc1ccc(S(=O)(=O)NCCc2ccccc2)cc1 strictly below 90%?
Result :: label 0

Query :: Decide: viability at 28.5 h, 10 µM of O=C(/C=C/c1ccco1)Nc1cccc2c(NC(=O)/C=C/c3ccco3)cccc12 strictly below 90%?
Result :: label 0

Query :: Decide: viability at 28.5 h, 10 µM of O=C1COc2ccc(C(=O)CSc3nnc(C4CC4)n3C3CC3)cc2N1 strictly below 90%?
Result :: label 1

Query :: Decide: viability at 28.5 h, 10 µM of Cc1nc2c(-c3cccs3)c(C)nn2c(O)c1C strictly below 90%?
Result :: label 0

###

# assay.comment: in vitro
# protocol.conditions: human, hela cells, % viability
With a cut-off of 90%, any viability at 28.5 h, 10 µM strictly below it is called MET; any viability at 28.5 h, 10 µM meeting it or above is called NOT MET.

Query :: Decide: viability at 28.5 h, 10 µM of CCOC(=O)c1ccoc1CN1CCCC1c1ccsc1 (stereo not shown) strictly below 90%?
Result :: MET

Query :: Decide: viability at 28.5 h, 10 µM of CC(C)c1cc2c(s1)NC(c1ccccc1)NC2=O (stereo not shown) strictly below 90%?
Result :: NOT MET

Query :: Decide: viability at 28.5 h, 10 µM of Clc1ccccc1C1N(Cc2ccccc2)CCN1Cc1ccccc1 strictly below 90%?
Result :: NOT MET

Query :: Decide: viability at 28.5 h, 10 µM of Cc1csc2ncnc(NCCc3ccccn3)c12 strictly below 90%?
Result :: MET

Query :: Decide: viability at 28.5 h, 10 µM of COc1cc(-c2cnc3[nH]c(=O)n(Cc4ccco4)c3n2)cc(OC)c1OC strictly below 90%?
Result :: NOT MET

Query :: Decide: viability at 28.5 h, 10 µM of CCCN1CCN(C(=O)c2cnc(C)cn2)C(Cc2cccc(-c3cccs3)c2)C1=O (stereo not shown) strictly below 90%?
Result :: MET

Query :: Decide: viability at 28.5 h, 10 µM of CN(C)C(=O)Cn1cccc2cc(-c3ccc(F)cc3)nc1-2 strictly below 90%?
Result :: NOT MET

Query :: Decide: viability at 28.5 h, 10 µM of CC(C(=O)N1CCC(c2cc3cccnc3[nH]2)CC1)N1CCCC1=O (stereo not shown) strictly below 90%?
Result :: NOT MET
